targetSystem: D1 (Homo sapiens, UniProt P21728)
Sequence (P21728 whole entry): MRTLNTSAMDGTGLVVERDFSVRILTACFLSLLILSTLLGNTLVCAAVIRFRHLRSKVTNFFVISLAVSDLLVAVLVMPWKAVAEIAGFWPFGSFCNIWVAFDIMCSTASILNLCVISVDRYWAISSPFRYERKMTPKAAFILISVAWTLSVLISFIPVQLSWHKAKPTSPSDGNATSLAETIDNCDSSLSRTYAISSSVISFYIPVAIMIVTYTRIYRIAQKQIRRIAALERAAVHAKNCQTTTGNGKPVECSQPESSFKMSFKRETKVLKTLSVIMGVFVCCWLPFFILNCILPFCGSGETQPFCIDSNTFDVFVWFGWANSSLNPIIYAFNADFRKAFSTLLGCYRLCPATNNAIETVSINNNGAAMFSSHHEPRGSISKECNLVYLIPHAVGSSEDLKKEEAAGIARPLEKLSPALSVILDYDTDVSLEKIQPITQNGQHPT
assaySummary: D1 binding assay (FIG. 2B)
propertyLabel: Ki (µM)
Give the value, in units of µM, as a plain number.

Which Ki reading was recorded for the compound CN1C(=O)c2ccccc2[S@+]([O-])c2ccc(C(=O)NCCc3cccs3)cc21 ?
67.1

====

targetSystem: D2 GPCR receptor (DAR) (Homo sapiens)
Construct: host or cells: CHO PathHunter β-arrestin cells
Sequence (P14416 whole entry): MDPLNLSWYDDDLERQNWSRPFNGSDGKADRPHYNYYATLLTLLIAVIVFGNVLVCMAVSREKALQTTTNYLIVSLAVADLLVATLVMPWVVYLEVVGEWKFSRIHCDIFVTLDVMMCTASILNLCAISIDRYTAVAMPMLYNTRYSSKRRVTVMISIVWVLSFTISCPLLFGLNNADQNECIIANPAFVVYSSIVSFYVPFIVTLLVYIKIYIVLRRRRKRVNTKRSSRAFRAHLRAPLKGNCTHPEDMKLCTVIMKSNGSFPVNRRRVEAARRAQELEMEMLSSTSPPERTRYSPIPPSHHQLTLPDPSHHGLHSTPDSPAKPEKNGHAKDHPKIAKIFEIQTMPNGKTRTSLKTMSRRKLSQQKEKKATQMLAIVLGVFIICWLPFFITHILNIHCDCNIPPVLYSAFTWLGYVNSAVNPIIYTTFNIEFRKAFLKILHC
assaySummary: D2 beta-arrestin functional assay (PathHunter, CHO)
Assay type: cell-based
experimentalParameters: ratio of D3 (Example 4) to D2 (Example 2) beta arrestin assay
Text: For a secondary-screen and selectivity assays, DAR PathHunter® β-arrestin GPCR cell lines from DiscoveRx (Fremont, Calif.). In this) were used. In the D2 Receptor PathHunter® β-arrestin GPCR cell line, the D2 GPCR receptor (DAR) is overexpressed and fused with a small 42-amino acid fragment of β-galactosidase called ProLink™ on a CHO cellular background expressing a fusion protein of β-arrestin and a larger N-terminal deletion mutant of β-galactosidase (“enzyme acceptor”). […]
Measured D3/D2 beta-arrestin IC50ratio by item
// response body must contain only the number

# compound, measuredValue
measured = [
    ("CN1C(=O)c2ccccc2[S@+]([O-])c2ccc(C(=O)NCCc3cccs3)cc21", 17.8),
    ("CN1C(=O)c2ccccc2[S+]([O-])c2ccc(C(=O)NCCc3cccs3)cc21 (racemic)", 22.3),
]

Now look at this entry.
Request the reported D3/D2 beta-arrestin IC50ratio associated with CN1C(=O)c2ccccc2[S@+]([O-])c2ccc(C(=O)NCc3ccc(Cl)cc3)cc21
4.5
